The values you see were collected from paper PMC8105289.

assay-notes: logP / logD7.4 by potentiometric titration
condition-set: n-octanol/water
property-name: logP

Can you look up the measured logP of "CS(=O)(=O)Nc1cc(-c2ccccc2)on1" for me? 0.58

Can you look up the measured logP of "CN(C)S(=O)(=O)NC1(CCc2ccccc2)CS(=O)(=O)C1" for me? 1.83

Can you look up the measured logP of "CS(=O)(=O)Nc1cn(-c2ccccc2)nn1" for me? 1.16

Can you look up the measured logP of "O=S(=O)(Nc1cn(-c2ccccc2)nn1)c1ccccc1" for me? 2.55

Can you look up the measured logP of "CS(=O)(=O)NC1(CCc2ccccc2)CS(=O)(=O)C1" for me? 1.03

Can you look up the measured logP of "O=S(=O)(Nc1cc(-c2ccccc2)on1)c1ccccc1" for me? 1.76

Can you look up the measured logP of "CC1(NS(=O)(=O)CCc2ccccc2)COC1" for me? 1.58

----------
Give measured pKa for each item. Keep answers brief.
assay-notes: pKa by potentiometric titration
condition-set: ionic strength adjusted water (0.15 M KCl), pKa units higher than the pKa value of 9

Can you look up the measured pKa of "CS(=O)(=O)NC1(CCc2ccccc2)CS(=O)(=O)C1" for me? > 5

Can you look up the measured pKa of "CS(=O)(=O)NC1(CCc2ccccc2)CSC1" for me? > 5

----------
assay-notes: logD7.4 by shake-flask method
condition-set: n-octanol/aqueous buffer, pH 7.4
Give measured logD for each item. Keep answers brief.
// no unit string in output, number only

Can you look up the measured logD of "CN(C)S(=O)(=O)NC1(CCc2ccccc2)COC1" for me? 1.96

Can you look up the measured logD of "CS(=O)(=O)NC1(CCc2ccccc2)CSC1" for me? 2.44

Can you look up the measured logD of "CC(=O)NC1(CCc2ccccc2)CS(=O)(=O)C1" for me? 1.18

Can you look up the measured logD of "O=S(=O)(NC1(CCc2ccccc2)CSC1)c1ccccc1" for me? 2.96

Can you look up the measured logD of "CN(C)S(=O)(=O)NC1(CCc2ccccc2)CSC1" for me? 2.83

Can you look up the measured logD of "O=S(=O)(NC1(CCc2ccccc2)COC1)c1ccccc1" for me? 2.76

Can you look up the measured logD of "O=S1(=O)CC(CCc2ccccc2)(NS(=O)(=O)c2ccccc2)C1" for me? 1.89

----------
assay-notes: logP / logD7.4 by potentiometric titration
condition-set: n-octanol/aqueous buffer, pH 7.4
Doc: threshold 1 (exclusive). Items with logD beneath it return t; others return f.

Bench note: check whether "CS(=O)(=O)NC1(CCc2ccccc2)CS(=O)(=O)C1" shows logD below 1 f

Bench note: check whether "CN(C)S(=O)(=O)NC1(CCc2ccccc2)CS(=O)(=O)C1" shows logD below 1 f

Bench note: check whether "CC1(NS(=O)(=O)CCc2ccccc2)COC1" shows logD below 1 f

Bench note: check whether "CS(=O)(=O)Nc1cn(-c2ccccc2)nn1" shows logD below 1 t

Bench note: check whether "O=S(=O)(Nc1cn(-c2ccccc2)nn1)c1ccccc1" shows logD below 1 f

Bench note: check whether "CS(=O)(=O)Nc1cc(-c2ccccc2)on1" shows logD below 1 t

----------
assay-notes: Parallel artificial membrane permeability assay
condition-set: PAMPA
property-name: Papp (×10⁻⁶ cm/s)
Number in ×10⁻⁶ cm/s, nothing else.

Can you look up the measured Papp of "CC(=O)NC1(CCc2ccccc2)CS(=O)(=O)C1" for me? 2.11

Can you look up the measured Papp of "CS(=O)(=O)NC1(CCc2ccccc2)CS(=O)(=O)C1" for me? 3.66

Can you look up the measured Papp of "CS(=O)(=O)Nc1cc(-c2ccccc2)on1" for me? 1.16

Can you look up the measured Papp of "CC1(NS(=O)(=O)CCc2ccccc2)COC1" for me? 6.79

Can you look up the measured Papp of "CS(=O)(=O)NC1(CCc2ccccc2)CSC1" for me? 14.6

Can you look up the measured Papp of "O=S(=O)(Nc1cc(-c2ccccc2)on1)c1ccccc1" for me? 5.79

Can you look up the measured Papp of "O=S(=O)(Nc1cn(-c2ccccc2)nn1)c1ccccc1" for me? 4.09

Can you look up the measured Papp of "CS(=O)(=O)Nc1cn(-c2ccccc2)nn1" for me? 2.42

Can you look up the measured Papp of "CN(C)S(=O)(=O)NC1(CCc2ccccc2)CSC1" for me? 11.4

Can you look up the measured Papp of "CN(C)S(=O)(=O)NC1(CCc2ccccc2)COC1" for me? 10.2

Can you look up the measured Papp of "CN(C)S(=O)(=O)NC1(CCc2ccccc2)CS(=O)(=O)C1" for me? 4.43

Can you look up the measured Papp of "O=S(=O)(NC1(CCc2ccccc2)COC1)c1ccccc1" for me? 7.06
